- ASSAY TEXT: yeast display, Sf9 membrane polyspecificity reagent, FACS + sequencing; frameworks hold sequencing errors

{"columns": ["CHAIN SEQUENCE", "polyreactivity (PSR sort gate)"],
 "data": [
  ["QVQLVESGGGLVQAGGSLRLSCAASGRLFKSYAMGWYRQAPGKEREFVAAISTRSSSTYYADSVKGLFTISRDNAKNTVYLQMNSLKPEDTAVYYCAATPRRVSPYGVPYGDVYWGQGTQVTVSS", "low polyreactivity"],
  ["QVQLVESGGGLVQAGGSLRLSCAASGRIDLDYDMGWYRPAAGKERELVATISSGGSTNYADSVKGRFTISRDNAKNTVYLQMNSLKPDDTAVYYCNKDYHVRYYYWGQGTQVTVSS", "low polyreactivity"]
]}

---

- ASSAY TEXT: yeast display, Sf9 membrane polyspecificity reagent, FACS + sequencing; frameworks hold sequencing errors

{"columns": ["CHAIN SEQUENCE", "polyreactivity (PSR sort gate)"],
 "data": [
  ["QVQLVESGGGLVQAGGSLRLSCAASGRIFSRNDMGWYRQSPGKERELVAAITRIGGSTYYADSVKGRITISRDNAKNTVYLQMNSLKPEDNAVYYCAARGSGKYGWGQGSQVTVSS", "high polyreactivity"],
  ["QVQLVESGGGLVQAGGSLRLSCAASGSIFEGYVMGWYRPAPGKVRELVAAISWSGGSTYYADSVKGRFTISRDNAKNTVYLQMNSLKPEDTAVYYCAAYGYDRYGRTRYNSWGQGTQVTVSS", "high polyreactivity"],
  ["QVQIVESCGGLVQAGGSHRLSCAASGSTFVPNAMGWYRQAPGKEREFVAAISRIGGTYYADSVKGRFTISRDNEKNTVYLLMNCLKPEDNAVYYCAAEPSSVGYHVEYDYWGQGTQVTVSS", "low polyreactivity"],
  ["QVQLVESGGGLVQAGGSLRLSCAASGSIFFYYAMGWYRQAPGKERELVADITSGGTTYYADSVKGRFTISRDNAKNTVYLQMNSQKPEDTAVYYCNAGLYPGQRPDYTNYSSYYWGQGTQVTVSS", "low polyreactivity"],
  ["QVQLVESGGGLVQAGGSLRLSSAASGRTFGFYAMGCYRQAHGKERELVATISSSGGSTYYADSVKGRFTISRDNAKNTVYLQMNRLTPEDTAVYYCAKVVSVWRSHYIGDYWGQGSQVTVSS", "low polyreactivity"],
  ["QVQLVESGGGLVQAGGSLRFSCAASGITFVDYAMGWYRQAPGKEREFVAGISESGGSTYYADSVKGRFTISRDNAKNTVYLQMNSLKPEDTAVYYCAADPYVDSYDSWGQGTQVTVSS", "low polyreactivity"],
  ["QVQLVESGEGLVQAGGSLRLSCAASGRTFDRNTMGWYTQAPGKERELVAAISSSGGSTYYADSVKGRFTISRDNAKNTVYLQMNSLKPEDTAVYYCAVRSRQYFRYGYDYWGQGTQVTVSS", "high polyreactivity"],
  ["QVQLVESGGGLVQAGGSLRLSCAASGLTFDGYAMGWYRQAPGKERELVARITRNGGITYYADSVKGRFTISRDNAKNTVYLQMNSLKPEDTAVYYCAAGQRLWKYYGVIGWTVTNYYYWGQGTQVTVSS", "high polyreactivity"],
  ["QVQLVESGGGLVQAGGSLRLSCAAYGSTFKPYAMGRYRQAPGKERELVADITGGGSTNYADSVKGRFTISRDNAKNTVYLQMNSLKPEDTAVYYCNADPVRSTYSYDYWGQGTQVTVSS", "low polyreactivity"],
  ["QVQLVDSGGGLVQAGGSLRLSCAASGSSVKTYAMGWYRQAPGKERELVASISYSGDTTYADSVKGRFTISRDNAKNSVYLQMNSLKPEDTAVYYCAAGWYYYYYSYQYWDYDYWGQGTQVTVSS", "high polyreactivity"],
  ["QVQLVESGGGLVQAGGILRLICAASGFIFLGYALGWYRQAPGTERELVAAISSDSDKNYADSVKGRFTISRDNAKNTVYLQMNILKPEDTAVYYCIADIDSYREMDYWGQGTQVTVSS", "low polyreactivity"],
  ["QVQLVESGGGLVQAGGSLRLSCAASGITLAGYVMGWYRQAPGKERELVADISSSGDSTYYADSVKGRFTISRDNAKNTVYLQMISLKPEDTAVYYWAAEEIIPLIYKGYPFDYWGQGTQVTVSS", "low polyreactivity"],
  ["QVQLVESGGGLVQAGGSLRLSCAASGSIFPEYAMGWYRQAPGKERELVAAITTSGGSTYYADSVKGRFTISRDNAKNTVYLQMNSLKPEDTAVYYCAVEYLVYLDYTYDYWGQGTQVTVSS", "low polyreactivity"],
  ["QVQLVESGGGLVQAGGSIRLSCAASGSIFGSNAMGWYRQAPGKERELVDAISGSGGSTNYADSVKGRFTISRDNAKNTVYLQMNSLKAEDTAVYYCAVPSKATGSASTSSGIFDSWGQGTQVTVSS", "low polyreactivity"],
  ["QVQLVESGGGLVQAGGSLRLICAASGSIFSSYAMGWYRQAPGTGRELVASISRRGGSTYYADSVKGRFTISRDNAKNTVYLQMNSLKPEDTAVYYCNASGGPYRYYYWGQGTQVTVSS", "low polyreactivity"],
  ["QVQLVESGGGLVQEGGSLRLSCAASGRIFYSNAMGWYRQAPGKERENVAAISWSGGGTYYADSVKGRFTISRDNAKNTVYLQMNSLKPEDTAVYYCAAVFGYSWAFEYDYWGQGTQVTVSS", "low polyreactivity"],
  ["QVQLVESGGGLFQAGGRLRLSCASSGYTFDYYTMAWYRQAPGKERELVARITASGGSTYYADSVKGRFTISRDNAKNTVYLQMNSLKPEDTAVYYCAADYWWYTGYDYWGQGTQVTVSS", "high polyreactivity"],
  ["QVQLVESGGGLVQAGGSLRISCAASGSIFGGYSMGWYRQAPGKERELVAAIRYSGVSTYYADSVKGRFTISRDNAKYTVYFQMNSLKAEDTAVYYCNAVPFYYHYDYWGQGTQVTVSS", "high polyreactivity"],
  ["QVQLVESGGGLVQAGGSLRISCAASGGIFIRNAMGWYRQAPGKERELFATISNAGSTYADSVKGRFTISRDNAKNTVYLQMNSLKPEDTAVYYCNRVDWTYPVSQGLQEYDYRGQGTQVTVSS", "low polyreactivity"],
  ["QVQLVESGGGLVQAGGSLRLSCAASGSTFAQNAMGWYRQAPGKEREFVAAITGTVGSTYYADSVKGRFTISRDNAKNTVYLQMNSLKPEDTAVYYCNTRGFNGRVYPYDYWGQGTQVTVSS", "low polyreactivity"],
  ["QVQLVESGGGLVQAGGSLRLSCAASGITFVYYAMGWYRQAPGKDRELVAAITSTGGSTYYADSVKGRFTISRDNAKNTVYLQMNSLKPEDTAVYYCAAVPRGTQGAMDYWGQGTQVTVSS", "low polyreactivity"]
]}

---

- ASSAY TEXT: yeast display, Sf9 membrane polyspecificity reagent, FACS + sequencing; frameworks hold sequencing errors

{"columns": ["CHAIN SEQUENCE", "polyreactivity (PSR sort gate)"],
 "data": [
  ["QVQLVESGGGLVQAGGSLRLSCAASGSTFGSYAMGWYRQAPGKERELVAAISRGGGSTYYADSVKGRFTISRDNAKNTVYLQMNSLKPEDTAVYYCAATAQNDSRYGSRYYYWGQGTQVTVSS", "high polyreactivity"],
  ["QVQLVESGGGLVQAGGSLRLSCAASGRTFSVYAKGWYRQAPGKERELVAGITSGGSTNYADSVKGRFTISRDNAKNTVYLQMNSLKPEDTAVYYCAAENVYAGFGFVSIGDYWGHGTQVTVSS", "low polyreactivity"],
  ["QVQLVDSGGGLDQAGGSLRLSCAASGYTFWLYAMGWYRQAPGKERELVAAISRGGITNYADSVKGRFTISRDNAKNTVYLQMNSLKPEDTAVYYCAAEYRGRGWRYGYDDWGQGTQVTVSS", "high polyreactivity"],
  ["QVQLVESGGGLVQAGGSLRLSCAASGSTFIVNAMRWYRQAPGKERELVAAIDWSGGSTYYADSVKGRFTISRDNAKNTVYLQMNSLKPEDTAVYYCAAQYEIPAGNSTYDYWGQGTQVTVSS", "low polyreactivity"],
  ["QVQLVESGGGLVQAGGSLRLSCAASGRTFYWYTMGWYRQAPGKERELVAAISTRGVRTYYADSVKGRFTISRDNAKNTVYLQMNSLKPEDTAVYYGNDEYNPPYYTSHDDSDYWGQGTHVTVSS", "low polyreactivity"],
  ["QVQLVETGGGLVQAGGSLRLSCAASGSTLTYYTMGWYRQAPGKERELVARISWSSGRTYYAVSVKGRFTISRDNAMNTVYLQMNSLKPEDTAVYYCNADRTYYRGLDYWGQGTQVTVSS", "high polyreactivity"],
  ["QVQLVESGGGLVQAGGSLRLSCAASGFIFYWYAMGWYRQAHGKERELVARITQSVGRTYYADSVKGRFTISRDNAKNTVYLQMNSLKPEDTAVHYCATDYGSYWSGAAYERYDYWGQGTQVTVSS", "low polyreactivity"],
  ["QVQLVESGGGLVQAGGSLRLSCAASGSTLLANAMGWYRQAPGKERELVAASTYYADSVKGRFTISRDNAKNTVYLQMNSLKPEDTAVYYCAADTVRGGPDGIEYNYWGQGTQVTVSS", "low polyreactivity"],
  ["QVQLVESGGGLVQAGGTLRLSCAASGRILPRNAMGWSRQAPGKERELVAGISSDGSTNYADSVKGRFTISRDNAKNSVYLQMNILKPEDTAVYYCAADGVYDPYVYGYWGQGTQVTVSS", "low polyreactivity"],
  ["QVQLVESGGGLVQAGGSLRLSCAASGSTFGVNDMGWYRQAPGKERELVAAISRGAITNYADSVKGRFTISRDNAKNTVYLQMNSLKPEDTAVYYCAAGFVTYYVPQYKEYGYDYWGQGTQVTVSS", "low polyreactivity"],
  ["QVQLVESGGGLVQAGGSLRLSCAASGSIFYTNAMGWYRQAPGKERELVAAYADSVKGRFTISRDNAKNTVYLQMNSLKPEDTAVYYCNAVLPIYRYLYEGDYWGQGTQVTVSS", "low polyreactivity"]
]}
